Catalogue of sequences with associated apparent Kd
System: MS2 coat protein
Assay: apparent Kd, MS2 coat protein; higher = weaker binding; RNA-MaP array
Settings: designed as: OFF switch for flavin mononucleotide; no ligand
I only need the number, in nM, no unit after it.

// known answers, use as guide
AGAGCACAUGAGGAUCACCCAUGUUAGGAUAUAAGUCUGGAUCUACCUGAGCCCGAUCUUAGAAGGAACGGUGU | 11
UAAUAGAAAGGAUAUACAUAGGUUGGCUAAUGACGUUCCGAACAUGAGGAUCACCCAUGUAGAAGGUUCUGCGU | 12.4
GGAAUGUCAGGAUAUCUAAUUACCCAGAAAGAUAUGGAACCAGAGAAGGGACAUGAGGAUCACCCAUGUAUAAC | 10.2
ACCCUGUGAGGAUAUAUGCGGUUUGAACCAGAUCAGAAAUAAUAGAAGGCACAUGAGGAUCACCCAUGUUUCUC | 27.9

Exercise: Which measured apparent Kd value corresponds to CAAUACGAUGUCAGGAUAUUAUUUCAAGUAGACGGUAAGAAGGGACAUGAGGAUCACCCAUGUACGGAAUACGC ?
Solution: 6.35

Exercise: Which measured apparent Kd value corresponds to GAAAUAGUAGUUAGGAUAUGUAAUUGAAGACAUAUACAGAAGGAACAUGAGGAUCACCCAUGUAUUGGGAUGGA ?
Solution: 196

Exercise: Which measured apparent Kd value corresponds to AACGUCAACGUAAGGAUAUGCAGUAAGAGCGACAGGCAGAAGGUACAUGAGGAUCACCCAUGUUAACAGAACGG ?
Solution: 8.79

Exercise: Which measured apparent Kd value corresponds to CUCUUAGGACAGGAUAUGGAACGCAUGUGUGCUCCAGAAGGGUCUACAUGAGGAUCACCCAUGUUCGGGACGGU ?
Solution: 530

* * *

Catalogue of sequences with associated apparent Kd
Tested on: MS2 coat protein
Assay: apparent Kd, MS2 coat protein; higher = weaker binding; RNA-MaP array; theophylline 2 mM where present
Details: designed as: OFF switch for theophylline; no ligand
I only need the number, in nM, no unit after it.

// known answers, use as guide
GGCUAGUGCAUCGAUACCAGCUACAUGAGGAUCACCCAUGUAGGAAGGGUGGUACUCGAUAGCCCUUGGCAGCGAACACCUCCGG | 16.1
UCGACAGUGAACGAUACCAGCGUCACGUGGCCGGUGGUCACAUGAGGAUCACCCAUGUAACGCCCUUGGCAGCGUGCACGUAUCC | 26.1
UCGCUCGCCGGAAGGCGAGCGAGUUGCGAUACCAGCCCGGAAACGGGCCCUUGGCAGCGCACAUGAGGAUCACCCAUGUCAUGUU | 19.4
UGACAUUGCUCAGAUACCAGACAUGAGGAUCACCCAUGUGCCAACGUACAAAUAAUAAAUGUCCCUUGGCAGCUGAGCAAUGUCU | 11.4
CUCGAGUUAUGAGAUACCAGACUAUAGUUUACAUGAGGAUCACCCAUGUUAUGGGUGGUAGUCCCUUGGCAGCUCAUAUGUUUAA | 225
CGAGUCCGCUGAUGGGCUAAGUCAGGUGAUACCAGCCACUCCCGCGGCCCUUGGCAGCACAUGAGGAUCACCCAUGUAGGGCUUG | 19.6

Now, please, on to the next sequence.
Exercise: Which measured apparent Kd value corresponds to AUUAUCAUGGUCAUAUAUAUUUCGUCAGAUACCAGACUAGAUAUAGUCCCUUGGCAGCUGUUACAUGAGGAUCACCCAUGUUAUA ?
Solution: 116

* * *

Catalogue of sequences with associated apparent Kd
Tested on: MS2 coat protein
Assay: apparent Kd, MS2 coat protein; higher = weaker binding; RNA-MaP array
Conditions: designed as: OFF switch for flavin mononucleotide; no ligand
I only need the number, in nM, no unit after it.

UUGAAACAUGAGGAUCACCCAUGUCAGGAUAUCUUAACCCACUUACGCGAGUGUAGCCAGAGAAGGGACAGCGG | 12.1
AGCAGAGCCUAGAAGGCAGUGCAGACCGCGCACUGAGGAUAUAGACUUUAAGAUUGUACAUGAGGAUCACCCAUGUUGAGUGGG | 563
AAGUUACACAAGAAGGAGGGCGACUUUUUCACAUGAGGAUCACCCAUGUAUCCUCUUGGAGGAACCUAGGAUAUUGCUAAGCGU | 175
GUUAGUCCACGAGGAUAUCGAAAUCGGCCCAGUGAAUUUUCACAUGAGGAUCACCCAUGUCAUAUCGAGAAGGCGUCUGAAAGC | 35.7
GUCUCUCGCUUAGGAUAUCAGCACGAUUAUCCCUGAGAAGGAAGUGACAGACAUGAGGAUCACCCAUGUAUCCAAGGUUCGAAG | 15.6
AGGGCACAUGAGGAUCACCCAUGUAAGGAUAUGGACUUUUUUGCUGUAGUAAUCAUCUCCAGAAGGUACGUCUU | 24.4
CUCUUAGAAGGAUAUUAAUAAUGUUACAUGAGGAUCACCCAUGUCUCAAUAUGUGACCGUUAAGAAGGUCUAUCGC | 9.2
GUGGGCGCUGAGAAGGACCGGAGACGCCGAUUGGUAGGAUAUCAGAAAGGUGCCGGUGAUUACAUGAGGAUCACCCAUGUAUGG | 22.8

Now, please, on to the next sequence.
Exercise: Which measured apparent Kd value corresponds to AUACAAUCAGGAUAUACUAGGCGAUAACAGAUUAUGACGUCACAUGAGGAUCACCCAUGUAGAAGGGAUCAGGA ?
Solution: 39.2

* * *

Tested on: MS2 coat protein
Test: apparent Kd, MS2 coat protein; higher = weaker binding; RNA-MaP array
Conditions: designed as: OFF switch for flavin mononucleotide; no ligand
parameter: apparent Kd (nM)
I only need the number, in nM, no unit after it.

AGAUCCCUGGUGAGGAUAUGUGAGACAUUCCCAGGACAGAAGGCACAUGAGGAUCACCCAUGUGUUGGGUAAUU | 6.32
AGUGAGGUUCUAGGAUAUCUCCCUCGAGUGCAGCUACAUGAGGAUCACCCAUGUCAUGGGUGUCGAGAGAAGGAGAAGGGCUUA | 74.5
CAUAUCAAUUCAGGAUAUUCUGUUUAAUACAUGAGGAUCACCCAUGUCCUCCAAAGAUUAGCAAGGAAGAAGGGAAGUAAACAG | 82.2
GCGCCUCCCAAGGAUAUAACGCGUCUCUAAGGAUUAGAAGGUGGGACAUGAGGAUCACCCAUGUGACUCCUUUA | 7.31
CUAAUGGUUGCAGGAUAUCGAAAACCGCACAUGAGGAUCACCCAUGUCGCUAAGCGUGACAUAGUCGAGAAGGGCAUGACAACU | 37.3
AGGACAUGAGGAUCACCCAUGUGAUGACAUUUCCUAGAACCGAAGGAUAUGCAAACGGAACCCGCGCAGAAGGUCGCUAACCUU | 57.5

Exercise: Which measured apparent Kd value corresponds to GGGACCACUCUUGGGCCGCUGACAUGAGGAUCACCCAUGUAUAGAAGGAGGGUGGCUAAUCACACCUAGGAUAUAUACAAGACU ?
Solution: 12

Exercise: Which measured apparent Kd value corresponds to AGCUUAAUUAUAGGAUAUGAGAGGACAUGAGGAUCACCCAUGUAGAUGUUUGCCACAUAGCCAGUUCAGAAGGAUAGAGCACCA ?
Solution: 24.9

Exercise: Which measured apparent Kd value corresponds to AGGGUACAUGAGGAUCACCCAUGUUAGGAUAUGUCCGGUACGGCCGCCGUACCAGGCAACAGAAGGAACACAGC ?
Solution: 30.2

Exercise: Which measured apparent Kd value corresponds to CUCGCGUGAGGAUAUGCCACGCCCGAAAGGCCGGGUCAUCGGCAGAAGGCACAUGAGGAUCACCCAUGUAUCGC ?
Solution: 13.3

Exercise: Which measured apparent Kd value corresponds to UUAUCGGUCUCAGGAUAUCAGUAUCACUCAUUAUGAGAAGGGAGACACUCCGGAACAUGAGGAUCACCCAUGUGGGCCUUGGGU ?
Solution: 172

Exercise: Which measured apparent Kd value corresponds to CGCUUGUUCAUAGGAUAUGCUAGGUAACUCAUGGUGAGUUGGGGAACAUGAGGAUCACCCAUGUGGCAGAAGGAUGGCGUUAAU ?
Solution: 65

Exercise: Which measured apparent Kd value corresponds to GUCUCUAGGACAGGAUAUCUCCUCAGGGAUGCGAGAGAAGGGUCUAUUGACAUGAGGAUCACCCAUGUGGAUCAUGUCUAUGAU ?
Solution: 378

Exercise: Which measured apparent Kd value corresponds to UACAAGCAAGGAUAUACAUGAGGAUCACCCAUGUGGAGAGCCAGCAAAUUCCGGAAAUGUAGAAGGUGCCACAA ?
Solution: 34.4

Exercise: Which measured apparent Kd value corresponds to UAAGAAGAUGAGAAGGGCCAAGUAUGAGCCGGGCGAUACAUGAGGAUCACCCAUGUUUCCUAACGGCAGGAUAUCACUUCCUAU ?
Solution: 5.86

Exercise: Which measured apparent Kd value corresponds to CCUCACUUGAAGAAGGACAGCUUCGGUCACAUCGGAACAUGAGGAUCACCCAUGUGACGCGUGGUGUAGGAUAUUCGUAAGGCA ?
Solution: 57.6

Exercise: Which measured apparent Kd value corresponds to GAUCCGCUCGAGAAGGUCGUCGGGCACCGAGUCGAAGGAUAUCGAGAAUGAAGACAUGAGGAUCACCCAUGUGAGGAGCGAUCC ?
Solution: 136
